assay: gradient 5% acetonitrile 3 min, to 50% in 2 min, to 85% in 15 min, held 3 min, 100 µL/min; conditions: column: Zorbax Extend-C18 2.1 x 50 mm; eluents: water / acetonitrile, 0.1% formic acid
Listed here: items and their measured RP-LC retention time.
A complete answer gives the number followed by the unit.

So what's the measured RP-LC retention time for this one? CCOc1ccc(NC(=O)CSc2nccc(N3CCN(c4cc(C)ccc4C)CC3)n2)cc1
928 s

###

assay: gradient 5% acetonitrile 3 min, to 50% in 2 min, to 85% in 15 min, held 3 min, 100 µL/min; conditions: column: Zorbax Extend-C18 2.1 x 50 mm; eluents: water / acetonitrile, 0.1% formic acid
Entries whose RP-LC retention time is below 700 s take Y; entries at or above 700 s take N.

Cc1cc(NC(=O)CN2C(=O)C(C(=O)N3CCCC3)Sc3ccccc32)ccc1Br (centres undefined) ... N

A record lists O=C(Cn1c(=O)c(CCC(=O)NC2CC2)nc2ccccc21)NCc1ccccc1Br . Is its RP-LC retention time below 700 s?
N

A record lists O=C(Cn1ccn2nc(-c3ccc(F)cc3)c(CO)c2c1=O)N1CCCc2ccccc21 . Is its RP-LC retention time below 700 s?
N

A record lists Cc1sc2cc(C(=O)O)[nH]c2c1C(=O)N1CCOCC1 . Is its RP-LC retention time below 700 s?
Y

A record lists Fc1ccccc1-c1noc(-c2nnn3c2COC(c2ccc(Cl)cc2)C3)n1 (centres undefined) . Is its RP-LC retention time below 700 s?
N

A record lists O=C(Nc1ccccc1Cl)N1CC(F)(F)C[C@H]1CN1CCCC1 . Is its RP-LC retention time below 700 s?
Y

A record lists Cn1cc(-c2noc(-c3cccs3)n2)ccc1=O . Is its RP-LC retention time below 700 s?
N

A record lists CCOC(=O)c1cc(C)nc2c1c(=O)n(Cc1cccc(F)c1)c(=O)n2C . Is its RP-LC retention time below 700 s?
N

A record lists Cc1cc(C(=O)N2CCCCC2)c2c(=O)n(CC(=O)c3c(C)n(C)c4ccccc34)c(=O)n(C)c2n1 . Is its RP-LC retention time below 700 s?
N

Cited source for all entries: the METLIN SMRT retention time set (Domingo-Almenara et al. 2019)
